The reported measurements were obtained from PubChem BioAssay (NCI).

Assay: NCI Yeast Anticancer Drug Screen. Data for the sgs1 mgt1 strain (AID 161);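 note: 0% = growth of cultures given vehicle only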
Details: S. cerevisiae sgs1 mgt1 strain, at 50.0 µM, active compounds read high
This is part of a sample that, as a whole, favours compounds with a hit. Of some 79,000 tested, about 15% had one in any assay.
MEASURE: growth inhibition (%)
Number only, in %; omit the unit.

>  <COMPOUND>
COC(C)(C)[CH]([Hg][Cl])n1ccccc1=O (stereo unspecified)

>  <MEASURE>
growth inhibition

>  <REPORTED_MEASUREMENT>
99.3

$$$$
>  <COMPOUND>
CC(=O)Nc1c2sscc-2n(C)c1=O

>  <MEASURE>
growth inhibition

>  <REPORTED_MEASUREMENT>
94.6

$$$$

INPUT: Reported growth inhibition, compound `COc1ccc([N+](=O)[O-])cc1CNCCCl` : ____
OUTPUT: 36.5

INPUT: Look up growth inhibition for this compound: `O=C(Cc1ccccc1)OCCBr`
OUTPUT: 0.95

INPUT: Fill blank: measured growth inhibition of the compound CC(C)(C)C1COP(=S)(C(C)(C)C)OC1 (stereo unspecified) is ____.
OUTPUT: -0.55

INPUT: Entry under review: O=C1C=CC=C[C@@H]2C(C3OCCO3)CC[C@H]12.[C-]#[O+].[C-]#[O+].[C-]#[O+].[Fe] (stereo partly specified) . Reported growth inhibition?
OUTPUT: -7.3

INPUT: Quick one: growth inhibition for `CP(C)C.[Ag][I]` ?
OUTPUT: -0.15

INPUT: Quick check: growth inhibition of COc1cc(C(CC(C)=O)c2cc3c(cc2OC(C)=O)OCO3)cc(OC)c1OC (stereo unspecified) (tested in a mixture with another compound) ?
OUTPUT: 17.2

INPUT: Item under review: `Cc1nccn1-c1ccc(Cl)cc1N=Cc1ccc(N(CCCl)CCCl)cc1Cl` . Reported growth inhibition?
OUTPUT: 68.5

INPUT: I would be grateful if you could share the reported growth inhibition for COc1cc(C2c3cc4c(cc3[C@@H](Nc3ccc([N+](=O)[O-])cc3)C3COC(=O)[C@H]23)OCO4)cc(OC)c1O (stereo partly specified) .
OUTPUT: 87.7

INPUT: // query growth inhibition value for entry O=[N+]([O-])C(CO)C(CO)[N+](=O)[O-] (stereo unspecified)
OUTPUT: -1

---

Test: NCI Yeast Anticancer Drug Screen. Data for the rad50 strain (AID 155);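 note: 0% = growth of vehicle-only cultures of the same strain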
Conditions: S. cerevisiae rad50 strain growth inhibition; at 5.0 µM (retest, dose inferred, filed as 0.5)
The panel holds about 79,000 compounds, 15% with a hit somewhere; the sample as a whole holds those more often. Calls of active or inactive are those of the source. Rule as the data show it: active = growth inhibition above about 70%; inactive = the rest.
Use one of these outcomes when replying: YES (active), NO (inactive)

>  <MOLECULE>
C[CH2][Hg]

>  <CLASS_NAME>
YES

$$$$
>  <MOLECULE>
CN(C)CCBr

>  <CLASS_NAME>
YES

$$$$
>  <MOLECULE>
O=[As]c1cccc2ccccc12 (configuration not stated)

>  <CLASS_NAME>
YES

$$$$
>  <MOLECULE>
CCOP(=O)(O)C(Nc1ccc(N=Nc2ccccc2)cc1)c1ccc(C(Nc2ccc(N=Nc3ccccc3)cc2)P(=O)(O)OCC)cc1 (configuration not stated)

>  <CLASS_NAME>
NO

$$$$
>  <MOLECULE>
O=C(O)C(Br)C(Br)C(=O)O.[Ag] (configuration not stated)

>  <CLASS_NAME>
YES

$$$$
>  <MOLECULE>
CCCCCc1cc(O)c(CCCC)c(O)c1

>  <CLASS_NAME>
NO

$$$$

Switching to the query record.
INPUT: Any idea what this test logged for `C=CCc1cc(Cl)ccc1OC(=O)N(C)C` ?
OUTPUT: NO
